Assay: Inhibition of recombinant Staphylococcus aureus DHFR expressed in Escherichia coli BL21 (DE3) using dihydrofolate as substrate and NADPH as cofactor incubated for 2.8 mins
value.kind: pKi
Please keep in mind that pKi is minus log10 of the molar concentration; only the number is needed.

compound="CCCC1c2ccccc2C=NN1C(=O)/C=C/c1cc(Cc2cnc(N)nc2N)cc(OC)c1OC (stereo unspecified)" measured_number=8.92
compound="COc1ccc(CC2c3ccccc3C=NN2C(=O)/C=C/c2cc(Cc3cnc(N)nc3N)cc(OC)c2OC)cc1 (stereo unspecified)" measured_number=8.92
compound="COc1cc2c(cc1OC)C(C1CC1)N(C(=O)/C=C/c1cc(Cc3cnc(N)nc3N)cc(OC)c1OC)N=C2 (racemic)" measured_number=9.15

input: Determine from records and report pKi for COc1cc(Cc2cnc(N)nc2N)cc(/C=C/C(=O)N2N=Cc3ccccc3C2Cc2ccc(C)cc2)c1OC (stereo unspecified)
output: 8.64

input: Give me measured pKi, please, for this compound: CCCC1c2cc(OC)c(OC)cc2C=NN1C(=O)/C=C/c1cc(Cc2cnc(N)nc2N)cc(OC)c1OC (racemic)
output: 8.96

input: Identify measured pKi corresponding to CCCC1c2cc(C)c(C)cc2C=NN1C(=O)/C=C/c1cc(Cc2cnc(N)nc2N)cc(OC)c1OC (racemic)
output: 8.92

====

Test system: Staphylococcus aureus
Test: Inhibition of recombinant Staphylococcus aureus DHFR expressed in Escherichia coli BL21 (DE3) using dihydrofolate as substrate and NADPH as cofactor incubated for 2.8 mins
Activity calls are given as the source filed them. No cut-off for these calls is given here.
value.kind: inhibition

compound="CCC(CC)C1c2ccccc2C=NN1C(=O)/C=C/c1cc(Cc2cnc(N)nc2N)cc(OC)c1OC (centres undefined)" value_kind=inhibition result=inactive
compound="COc1cc(Cc2cnc(N)nc2N)cc(/C=C/C(=O)N2N=Cc3ccccc3C2C=C(C)C)c1OC (centres undefined)" value_kind=inhibition result=Active
compound="COc1cc(Cc2cnc(N)nc2N)cc(/C=C/C(=O)N2N=Cc3ccccc3C2C(C)C)c1OC (centres undefined)" value_kind=inhibition result=Active
compound="COc1cc(Cc2cnc(N)nc2N)cc(/C=C/C(=O)N2N=Cc3ccccc3C2C2CCCCC2)c1OC (centres undefined)" value_kind=inhibition result=Active

input: Please look at this compound and report its inhibition: COc1cc(Cc2cnc(N)nc2N)cc(/C=C/C(=O)N2N=Cc3ccccc3C2c2ccccc2)c1OC (centres undefined)
output: Active

input: Report measured inhibition; entry is COc1cc(Cc2cnc(N)nc2N)cc(/C=C/C(=O)N2N=Cc3ccccc3C2CC(C)C)c1OC (centres undefined)
output: Active

input: State its inhibition for this compound: COc1cc(Cc2cnc(N)nc2N)cc(/C=C/C(=O)N2N=Cc3ccccc3C2c2ccc(C)cc2)c1OC (centres undefined)
output: inactive

input: Look up and report measured inhibition for this entry: COc1cc(Cc2cnc(N)nc2N)cc(/C=C/C(=O)N2N=Cc3ccccc3C2c2cc(C)cc(C)c2)c1OC (centres undefined)
output: inactive

input: Tell me inhibition reported for COc1cc(Cc2cnc(N)nc2N)cc(/C=C/C(=O)N2N=Cc3ccccc3C2CCC(F)(F)F)c1OC (centres undefined)
output: Active
